target_or_test_system: T1, rat PTH1R on UMR106 cells (rat, UniProt P25961 27-591)
T1 sequence (looked up): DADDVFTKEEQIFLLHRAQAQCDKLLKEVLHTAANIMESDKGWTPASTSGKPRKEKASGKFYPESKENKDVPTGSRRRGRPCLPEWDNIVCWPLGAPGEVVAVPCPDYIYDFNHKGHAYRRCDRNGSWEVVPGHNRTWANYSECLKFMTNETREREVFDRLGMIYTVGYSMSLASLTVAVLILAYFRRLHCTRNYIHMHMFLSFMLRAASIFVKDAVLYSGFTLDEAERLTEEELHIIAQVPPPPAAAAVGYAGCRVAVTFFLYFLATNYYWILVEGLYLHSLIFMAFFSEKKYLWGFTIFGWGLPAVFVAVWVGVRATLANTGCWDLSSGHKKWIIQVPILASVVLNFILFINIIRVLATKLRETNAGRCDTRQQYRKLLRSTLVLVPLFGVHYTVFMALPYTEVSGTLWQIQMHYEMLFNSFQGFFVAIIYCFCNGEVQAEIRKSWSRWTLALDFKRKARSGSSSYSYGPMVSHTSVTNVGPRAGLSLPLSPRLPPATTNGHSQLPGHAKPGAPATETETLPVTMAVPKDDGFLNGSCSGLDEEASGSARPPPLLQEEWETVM
assay_overview: cell-based or functional assay
assay_metric: % inhibition of cAMP accumulation at 1 µM PTHrP(1-34), 267 nM IgG (%)
Could you give me the number in %? Just the number is fine.

Request: State the recorded % inhibition of cAMP accumulation at 1 µM PTHrP(1-34), 267 nM IgG for this entry: XPA.85.288 (antibody, V domains shown, also called Ab288) VH: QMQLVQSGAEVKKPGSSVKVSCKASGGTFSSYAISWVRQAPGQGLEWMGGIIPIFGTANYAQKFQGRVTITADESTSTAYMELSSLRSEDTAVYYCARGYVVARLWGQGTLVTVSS VL: DVVMTQTPLSLSVTPGQPASISCKSSQSLLHIDGKTYLYWYLQKSGQSPQLLIYEVSNRFSGVPDTFSGSGSGTDFTLKISRVEAEDVGVYYCMQSLHFPITFGQGTRLEIK
Result: 45

Request: Requested field: % inhibition of cAMP accumulation at 1 µM PTHrP(1-34), 267 nM IgG. Item: XPA.85.330 (antibody, V domains shown, IgG; also called Ab330) VH: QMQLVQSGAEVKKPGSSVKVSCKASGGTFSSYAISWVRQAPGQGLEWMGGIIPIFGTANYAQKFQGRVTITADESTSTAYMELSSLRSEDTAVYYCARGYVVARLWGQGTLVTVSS VL: DIVMTQTPLSLSVTPGQPASISCKSSQSLLHIDGNTYLYWYLQRPGQPPQLLIYEISNRFSGVPDRFSGSGSGTDFTLKISRVEAEDVGVYYCMQSLHFPITFGQGTRLEIK
Result: 56

Request: Could you share which % inhibition of cAMP accumulation at 1 µM PTHrP(1-34), 267 nM IgG value was measured for XPA.85.331 (antibody, V domains shown, Light-chain-shuffled variant of XPA.85.012) VH: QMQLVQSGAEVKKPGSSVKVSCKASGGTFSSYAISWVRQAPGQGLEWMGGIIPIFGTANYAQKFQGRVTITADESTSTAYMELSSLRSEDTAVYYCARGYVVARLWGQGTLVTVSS VL: DVVMTQSPLSLPVTPGEPASISCRSSQSLLHIDGFNYLQWYLQKPGQSPQLLVHLGSFRASGVPDRFSGSGSGTDFTLEISRVEAEDVGLYYCMQGLQTPPTFGPGTKVEIK ?
Result: 37

Request: Find the recorded % inhibition of cAMP accumulation at 1 µM PTHrP(1-34), 267 nM IgG belonging to XPA.85.342 (antibody, V domains shown, Light-chain-shuffled variant of XPA.85.012) VH: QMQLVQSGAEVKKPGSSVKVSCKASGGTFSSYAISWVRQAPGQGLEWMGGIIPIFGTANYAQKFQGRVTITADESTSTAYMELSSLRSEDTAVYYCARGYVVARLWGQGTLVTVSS VL: ETTLTQSPTFMSASVGDRVTITCQASQDINNFLNWYQQKPGKAPKFLIYDASNLEKGVPSRFSGRGSGTEFTLTISSLQPEDIATYYCQQYRDFPLTFGQGTRLEIK and report it.
Result: 0

Request: Given the entry XPA.85.346 (antibody, V domains shown, Light-chain-shuffled variant of XPA.85.012) VH: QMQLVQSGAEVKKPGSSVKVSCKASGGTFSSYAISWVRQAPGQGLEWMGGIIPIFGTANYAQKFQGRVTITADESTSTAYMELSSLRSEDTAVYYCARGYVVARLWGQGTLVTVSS VL: DIVMTQTPLSLSVTPGQPASITCKSSQSLLHIDGKTYLYWFLQKPGQPPQLLIYEVSNRFSGVPDRFSGSGSGTDFTLKISRVEAEDVGLYYCMQSLHLPITFGQGTRLEIK , report its measured % inhibition of cAMP accumulation at 1 µM PTHrP(1-34), 267 nM IgG.
Result: 31

Request: What does the record list as % inhibition of cAMP accumulation at 1 µM PTHrP(1-34), 267 nM IgG for XPA.85.329 (antibody, V domains shown, IgG; also called Ab329; XPA.329) VH: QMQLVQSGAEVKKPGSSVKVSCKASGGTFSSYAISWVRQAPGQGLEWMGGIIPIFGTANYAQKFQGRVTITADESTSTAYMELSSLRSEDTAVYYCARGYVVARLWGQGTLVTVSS VL: DIVMTQTPLSLSVTPGQPASISCKSSQSLLHIDGLTYLYWYLQKPGQPPQLLIYEVSHRFSGVSDKFSGSGSGTDFTLTISRVEAEDVGVYYCMQSLHLPITFGQGTRLEIK ?
Result: 41
